study_target: UniProt P55263
Sequence (P55263 whole entry): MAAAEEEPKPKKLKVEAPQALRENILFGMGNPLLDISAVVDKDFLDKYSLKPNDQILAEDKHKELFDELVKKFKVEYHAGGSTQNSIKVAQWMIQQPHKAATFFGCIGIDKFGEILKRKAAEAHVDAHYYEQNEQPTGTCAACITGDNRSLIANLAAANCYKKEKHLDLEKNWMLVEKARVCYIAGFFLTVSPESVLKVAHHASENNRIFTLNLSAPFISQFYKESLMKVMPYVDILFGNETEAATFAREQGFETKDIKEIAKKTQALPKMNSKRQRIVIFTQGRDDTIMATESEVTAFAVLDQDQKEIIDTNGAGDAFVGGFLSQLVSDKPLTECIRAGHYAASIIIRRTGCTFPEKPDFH
test_method_notes: Inhibitory activity against Human Recombinant Adenosine Kinase
pIC50: −log10 of the molar value.
property_measured: pIC50

Completed entries (count: 5):
{"smi": "OC[C@H]1O[C@@H](n2c(N3CCc4ccccc43)nc3c(Nc4ccccc4)ncnc32)[C@H](O)[C@@H]1O", "endpoint_value": 5.15}
{"smi": "C[C@H]1O[C@@H](n2cc(-c3ccccc3)c3c(N4CCc5ccccc54)ncnc32)[C@H](O)[C@@H]1O", "endpoint_value": 7.29}
{"smi": "OC[C@H]1O[C@@H](n2c(I)nc3c(N4CCc5ccccc54)ncnc32)[C@H](O)[C@@H]1O", "endpoint_value": 6.00}
{"smi": "CCc1nc2c(N3CCc4ccccc43)ncnc2n1[C@@H]1O[C@H](CO)[C@@H](O)[C@H]1O", "endpoint_value": 6.64}
{"smi": "OC[C@H]1O[C@@H](n2c(Nc3ccccc3)nc3c(N4CCc5ccccc54)ncnc32)[C@H](O)[C@@H]1O", "endpoint_value": 7.72}

a = OC[C@H]1O[C@@H](n2c(I)nc3c(Nc4ccccc4)ncnc32)[C@H](O)[C@@H]1O
b = C#Cc1nc2c(N3CCc4ccccc43)ncnc2n1[C@@H]1O[C@H](CO)[C@@H](O)[C@H]1O
So which one has the bigger pIC50 here, a or b ? State the label of the item chosen.
b

a = OC[C@H]1O[C@@H](n2c(-c3ccco3)nc3c(Nc4ccccc4)ncnc32)[C@H](O)[C@@H]1O
b = C=Cc1nc2c(Nc3ccccc3)ncnc2n1[C@@H]1O[C@H](CO)[C@@H](O)[C@H]1O
Hey, between a and b which has a smaller measured pIC50? // caller expects the label of the chosen entry
a
